Experiment: PAMPA permeability
Format: in vitro ADME
Listed next: entries and their corresponding PAMPA Permeability.
quantityKind: PAMPA Permeability

NCCc1ccc(-c2ccc3ncc4ccc(=O)n(-c5ccc(C(=O)NC6CC6)cc5)c4c3c2)cc1
< 1 ×10⁻⁶ cm/s
NC(=O)c1ccc(-n2c(=O)ccc3cnc4ccc(-c5ccc(N)nc5)cc4c32)cc1
< 3.6 ×10⁻⁶ cm/s
NCCc1ccc(-c2ccc3ncc4ccc(=O)n(-c5ccc(C(=O)N6CCOCC6)cc5)c4c3c2)cc1
< 1 ×10⁻⁶ cm/s

* * *

// Microsomal Stability (rat) T1/2 lookup, one value per entry
Experiment: Microsomal stability (rat)
Type: in vitro ADME
Conditions: rat microsomes
quantityKind: Microsomal Stability (rat) T1/2

O=C(c1ccc(-n2c(=O)ccc3cnc4ccc(-c5ccc(CCN6CCCC6)cc5)cc4c32)cc1)N1CCOCC1 [Compound 217]
>30 min
CCN1Cc2cc(-n3c(=O)ccc4cnc5ccc(-c6ccc(F)cc6)cc5c43)ccc2C1=O [Compound 361]
>30.00 min
COc1cc(C(=O)NC2CCN(CCN(C)C)CC2)ccc1-n1c(=O)ccc2cnc3ccc(-c4ccc(Cl)cc4)cc3c21 [Compound 250]
>30 min
CC(N)c1ccc(-c2ccc3ncc4ccc(=O)n(-c5ccc(C(=O)N6CCOCC6)cc5)c4c3c2)cc1 (stereo not shown) [Compound 207]
>30 min

* * *

Test: Microsomal stability (rat)
Format: in vitro ADME
Details: rat microsomes
Some molecules, each annotated with its measured Microsomal Stability (rat) T1/2.
quantityKind: Microsomal Stability (rat) T1/2

NC1(c2ccc(-c3ccc4ncc5ccc(=O)n(-c6ccc(C(=O)N7CCN(CCO)CC7)cc6)c5c4c3)cc2)CC1
>30 min
COc1cc(C(=O)NCCN2CCC2)ccc1-n1c(=O)ccc2cnc3ccc(-c4ccc(Cl)cc4)cc3c21
>30 min
Nc1ccc(-c2ccc3ncc4ccc(=O)n(-c5ccc(S(N)(=O)=O)cc5)c4c3c2)cn1
>30.0 min
CN(C)Cc1ccc(-c2ccc3ncc4ccc(=O)n(-c5ccc(C(=O)N6CCNCC6)cc5)c4c3c2)cc1
>30.0 min
CC(N)c1ccc(-c2ccc3ncc4ccc(=O)n(-c5ccc6c(c5)CNC6=O)c4c3c2)cc1 (centres unmarked)
>30 min
CNC(=O)c1ccc(-n2c(=O)ccc3cnc4ccc(-c5ccc(N)nc5)cc4c32)cc1
>30.0 min
O=C(NC1C2CNCC21)c1ccc(-n2c(=O)ccc3cnc4ccc(-c5ccc(Cl)cc5)cc4c32)cc1 (centres unmarked)
>30.0 min
O=C(NCCN1CCC1)c1ccc(-n2c(=O)ccc3cnc4ccc(-c5ccc(Cl)cc5)cc4c32)cc1
>30 min

* * *

Experiment: PAMPA permeability
Assay type: in vitro ADME
Settings: PAMPA
quantityKind: PAMPA Permeability (×10^6 cm/s)

CS(=O)(=O)c1ccc(-n2c(=O)ccc3cnc4ccc(-c5ccc(Cl)c(C#N)c5)cc4c32)cc1
39.6 ×10^6 cm/s
CS(=O)(=O)c1ccc(-n2c(=O)ccc3cnc4ccc(-c5ccc(Cl)c(N)c5)cc4c32)cc1
33.9 ×10^6 cm/s
O=C1NCc2cc(-n3c(=O)ccc4cnc5ccc(-c6ccc(Cl)cc6)cc5c43)ccc21
<1.0 ×10^6 cm/s
Nc1ccc(-c2ccc3ncc4ccc(=O)n(-c5cccc(S(N)(=O)=O)c5)c4c3c2)cn1
<1.0 ×10^6 cm/s
CS(=O)(=O)c1ccc(-n2c(=O)ccc3cnc4ccc(-c5ccc(CN6CCCC6)cc5)cc4c32)cc1
439.2 ×10^6 cm/s
Cc1c(C#N)cccc1-n1c(=O)ccc2cnc3ccc(-c4ccc(Cl)cc4)cc3c21
<1 ×10^6 cm/s
O=C1NCc2cc(-n3c(=O)ccc4cnc5ccc(-c6ccc(CCN7CCOCC7)cc6)cc5c43)ccc21
<1 ×10^6 cm/s
CC(N)c1ccc(-c2ccc3ncc4ccc(=O)n(-c5ccc6c(c5)CNC6=O)c4c3c2)cc1 (centres unmarked)
4 ×10^6 cm/s

* * *

# Lookup of reported Microsomal Stability (rat) T1/2 keyed by entry
Assay: Microsomal stability (rat)
Assay type: in vitro ADME
Details: rat microsomes
quantityKind: Microsomal Stability (rat) T1/2

CS(=O)(=O)c1ccc(-n2c(=O)ccc3cnc4ccc(-c5ccc(Cl)c(C#N)c5)cc4c32)cc1
>30.0 min
COc1cc(-c2ccc3ncc4c(c3c2)n(-c2cc(C#N)ccc2C)c(=O)n4C)ccc1Cl
>30 min
O=C1NCc2cc(-n3c(=O)ccc4cnc5ccc(-c6ccc(Cl)cc6)cc5c43)ccc21
>30.0 min
NCc1cccc(-c2ccc3ncc4ccc(=O)n(-c5ccc6c(c5)CNC6=O)c4c3c2)c1
>30 min
CN(C)Cc1ccc(-c2ccc3ncc4ccc(=O)n(-c5ccc6c(c5)C(=O)NC6)c4c3c2)cc1
>30.0 min
Cc1cc(S(C)(=O)=O)ccc1-n1c(=O)ccc2cnc3ccc(-c4ccc(CN(C)C)cc4)cc3c21
>30 min
CN(C)CCc1ccc(-c2ccc3ncc4ccc(=O)n(-c5ccc(C(=O)NC6CC6)cc5)c4c3c2)cc1
>30 min

* * *

Assay: Solubility at pH 7.4
Format: physicochemical
Readings of Sol @ pH 7.4 for the listed molecules
quantityKind: Sol @ pH 7.4

N#Cc1ccc(-n2c(=O)[nH]c3cnc4ccc(-c5ccc(Cl)cc5)cc4c32)cc1
<1.0 ug/mL
CCN(CC)Cc1ccc(-c2ccc3ncc4ccc(=O)n(-c5ccc(C(=O)NC6CC6)cc5)c4c3c2)cc1
>76 ug/mL
Cc1cc(C(=O)NC2CC2)ccc1-n1c(=O)ccc2cnc3ccc(-c4ccc(Cl)c(O)c4)cc3c21
<1 ug/mL
O=C(c1ccc(-n2c(=O)ccc3cnc4ccc(-c5ccc6c(c5)CNC6)cc4c32)cc1)N1CCOCC1
>74 ug/mL
O=C(c1ccc(-n2c(=O)ccc3cnc4ccc(-c5ccc(Cl)cc5)cc4c32)cc1)N1CC2CCC(C1)O2
<1.0 ug/mL

* * *

Experiment: Microsomal stability (rat)
Format: in vitro ADME
Details: rat microsomes
We begin with a simple list: items and their reported Microsomal Stability (rat) T1/2.
quantityKind: Microsomal Stability (rat) T1/2

NC1(c2ccc(-c3ccc4ncc5ccc(=O)n(-c6ccc7c(c6)CNC7=O)c5c4c3)cc2)CCC1
>30 min
CN(C)Cc1ccc(-c2ccc3ncc4ccc(=O)n(-c5ccc6c(c5)CNC6=O)c4c3c2)cc1
>30.0 min
CN(C)CCN1CCN(C(=O)c2ccc(-n3c(=O)ccc4cnc5ccc(-c6ccc(Cl)cc6)cc5c43)cc2)CC1
>30 min
CS(=O)(=O)c1ccc(-n2c(=O)ccc3cnc4ccc(-c5ccc(Cl)c(C(=O)O)c5)cc4c32)cc1
>30.0 min
CN(C)CCN1CCN(C(=O)c2ccc(-n3c(=O)ccc4cnc5ccc(-c6ccc(C7(N)CC7)cc6)cc5c43)cc2)CC1
>30 min
NC(=O)c1ccc(-n2c(=O)ccc3cnc4ccc(-c5ccc(Cl)cc5)cc4c32)cc1
>30 min
NC(=O)c1cc(-c2ccc3ncc4ccc(=O)n(-c5ccc(C(=O)N6CCOCC6)cc5)c4c3c2)ccc1Cl
>30.0 min
O=C(c1ccc(-n2c(=O)ccc3cnc4ccc(-c5cccc(CCN6CCCC6)c5)cc4c32)cc1)N1CCOCC1
>30 min
NC1(c2ccc(-c3ccc4ncc5ccc(=O)n(-c6ccc(C(=O)N7CCOCC7)cc6)c5c4c3)cc2)CCC1
>30 min
O=C(c1ccc(-n2c(=O)ccc3c[n+]([O-])c4ccc(-c5ccc(Cl)cc5)cc4c32)cc1)N(CCO)CCO
>30 min
CN(C)Cc1ccc(-c2ccc3ncc4ccc(=O)n(-c5ccc6c(c5)CCNC6=O)c4c3c2)cc1
>30.00 min

* * *

Assay: PAMPA permeability
Type: in vitro ADME
Recorded PAMPA Permeability by entry
quantityKind: PAMPA Permeability

O=C(NC1CC1c1ccccc1)c1ccc(-n2c(=O)ccc3cnc4ccc(-c5ccc(Cl)cc5)cc4c32)cc1 (stereo not drawn)
< 2.4 ×10⁻⁶ cm/s
O=C(NC1CCC1)c1ccc(-n2c(=O)ccc3cnc4ccc(-c5ccc(Cl)cc5)cc4c32)cc1
< 1 ×10⁻⁶ cm/s
N#Cc1cc(NC(=O)c2ccc(-n3c(=O)ccc4cnc5ccc(-c6ccc(Cl)cc6)cc5c43)cc2)ccc1F
< 5.4 ×10⁻⁶ cm/s

* * *

Listing: Sol @ pH 7.4 of selected compounds
Test: Solubility at pH 7.4
Format: physicochemical
quantityKind: Sol @ pH 7.4

CC(C)(N)c1ccc(-c2ccc3ncc4ccc(=O)n(-c5ccc(C(=O)NC6CC6)cc5)c4c3c2)cc1
>72 ug/mL
CN(C)Cc1cccc(-c2ccc3ncc4ccc(=O)n(-c5ccc(C(=O)N6CCOCC6)cc5)c4c3c2)c1
>77.00 ug/mL
CCc1ccc(-c2ccc3ncc4ccc(=O)n(-c5ccc(C(=O)N6CCOCC6)cc5)c4c3c2)cc1
<1 ug/mL
COc1cc(-c2ccc3ncc4c(c3c2)n(-c2cc(C#N)ccc2C)c(=O)n4C)ccc1Cl
<1 ug/mL
COc1cc(C(=O)NCCCN2CCC(C)CC2)ccc1-n1c(=O)ccc2cnc3ccc(-c4ccc(Cl)cc4)cc3c21
>88 ug/mL
CN(C)Cc1ccc(-c2ccc3ncc4ccc(=O)n(-c5ccc(C(=O)N6CCN(CCO)CC6)cc5)c4c3c2)cc1
>83.0 ug/mL
CNC(=O)c1ccc(-n2c(=O)ccc3cnc4ccc(-c5ccc(Cl)cc5)cc4c32)cc1Cl
<1.0 ug/mL
COc1cc(C(=O)NCCN2CCCCC2)ccc1-n1c(=O)ccc2cnc3ccc(-c4ccc(Cl)cc4)cc3c21
<1 ug/mL
CN(C)Cc1ccc(-c2ccc3ncc4ccc(=O)n(-c5ccc(C(=O)N6CCN(C)CC6)cc5)c4c3c2)cc1
>79.0 ug/mL

Data credit: patent US11753408B2
